The reported numbers originate from PubChem BioAssay.

assay: reducers of endogenous Her2 protein level, primary screen, SKBR3 breast tumor cells, AlphaScreen, ATP viability (AID 461); conditions: 18-24 h, measured here: SKBR3 viability, ATP luminescence, at 10 µM;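 on viability: percent of carrier control wells set as 100% viability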
Measured viability, listed per entry.
Readout: viability

{"Compound": "CC1=C(C)[N+](=O)C2CCCCC2N1[O-] (stereo not drawn)", "Result": "89%"}
{"Compound": "COc1ccccc1NC(=O)N1CCCC1C(=O)NC1CCCCC1 (stereo not drawn)", "Result": "104%"}
{"Compound": "CC1N=C2c3ccccc3N=C(SCc3cc(=O)n4cc(Cl)ccc4n3)N2C1=O (stereo not drawn)", "Result": "78.5%"}
{"Compound": "COC(=O)c1cc(-c2c(C)oc3cc(O)ccc3c2=O)c(C)o1", "Result": "100%"}
{"Compound": "O=C(/C=N/O)Nc1cccnc1", "Result": "110%"}
{"Compound": "O=C(Cn1cccc1)N1CCN(C(c2ccccc2)c2ccccc2)CC1", "Result": "102%"}
{"Compound": "CCCN1C2=C(C(=O)CCC2)C(c2ccc(O)c(Br)c2)C2=C1CCCC2=O", "Result": "96%"}
{"Compound": "O=S(=O)(NCc1cccnc1)c1cccc2nsnc12", "Result": "98%"}
{"Compound": "Nn1c(SCC(=O)Nc2ccc3c(c2)OCCO3)nnc1C(F)(F)F", "Result": "88.5%"}
{"Compound": "O=c1c2c3nc4ccccc4nc3n(CC3CCCO3)c2ncn1CCc1ccccc1 (stereo not drawn)", "Result": "97%"}
{"Compound": "Cc1cc(C(=O)N2CCN(c3ncccn3)CC2)cs1", "Result": "90%"}
{"Compound": "Cc1ccccc1-n1nnnc1SCC(=O)Nc1ccc(S(=O)(=O)N2CCCC2)cc1", "Result": "70.5%"}
{"Compound": "CN1CCN(c2oc(COc3ccc(-c4ccccc4)cc3)nc2C#N)CC1", "Result": "83.5%"}
{"Compound": "CS(=O)(=O)N(CC(=O)Nc1ccc2c(c1)OCCO2)Cc1ccccc1", "Result": "93.5%"}
{"Compound": "CCC(=O)c1ccc(OC(=O)c2ccc(Br)o2)cc1", "Result": "102%"}
{"Compound": "Cc1cc(C(=O)NCCN2CCCCC2C)n(-c2ccccc2)n1 (stereo not drawn)", "Result": "87.5%"}
{"Compound": "Cc1c(C(=O)NCc2ccccc2)oc2c1C(=O)CCC2", "Result": "72%"}
{"Compound": "Cc1cc(C(=O)CSCc2nnc3n(CCC(C)C)c(=O)c4ccccc4n23)c(C)n1C", "Result": "99.5%"}
{"Compound": "Cc1cccc(NC(=O)CSc2nnc(-c3cc(C)n(-c4ccccc4)c3C)o2)c1C", "Result": "115%"}
{"Compound": "COc1ccc(OC)c(C2=NOC(C(=O)Nc3cccnc3)C2)c1 (stereo not drawn)", "Result": "78.5%"}
{"Compound": "COc1cc(OC)cc(-c2nnc(Nc3nc4c(F)cccc4s3)o2)c1", "Result": "95.5%"}
{"Compound": "Cc1ccc(S(=O)(=O)N2CCOCC2)cc1C(=O)OCC(=O)N1CCc2ccccc2C1", "Result": "82.5%"}
{"Compound": "COC(=O)c1ccc(NC(=O)CN2C(=O)CSC2=O)cc1", "Result": "104%"}

====

molecular target: Receptor tyrosine-protein kinase erbB-2 (Homo sapiens) (UniProt P04626); assay: reducers of endogenous Her2 protein level, primary screen, SKBR3 breast tumor cells, AlphaScreen, ATP viability (AID 461); conditions: 18-24 h, at 10 µM, stronger effect = lower value;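 on Her2 level: lower value means less Her2 protein in the cells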;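 on viability: percent of carrier control wells set as 100% viability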
Sequence (P04626 whole entry, looked up): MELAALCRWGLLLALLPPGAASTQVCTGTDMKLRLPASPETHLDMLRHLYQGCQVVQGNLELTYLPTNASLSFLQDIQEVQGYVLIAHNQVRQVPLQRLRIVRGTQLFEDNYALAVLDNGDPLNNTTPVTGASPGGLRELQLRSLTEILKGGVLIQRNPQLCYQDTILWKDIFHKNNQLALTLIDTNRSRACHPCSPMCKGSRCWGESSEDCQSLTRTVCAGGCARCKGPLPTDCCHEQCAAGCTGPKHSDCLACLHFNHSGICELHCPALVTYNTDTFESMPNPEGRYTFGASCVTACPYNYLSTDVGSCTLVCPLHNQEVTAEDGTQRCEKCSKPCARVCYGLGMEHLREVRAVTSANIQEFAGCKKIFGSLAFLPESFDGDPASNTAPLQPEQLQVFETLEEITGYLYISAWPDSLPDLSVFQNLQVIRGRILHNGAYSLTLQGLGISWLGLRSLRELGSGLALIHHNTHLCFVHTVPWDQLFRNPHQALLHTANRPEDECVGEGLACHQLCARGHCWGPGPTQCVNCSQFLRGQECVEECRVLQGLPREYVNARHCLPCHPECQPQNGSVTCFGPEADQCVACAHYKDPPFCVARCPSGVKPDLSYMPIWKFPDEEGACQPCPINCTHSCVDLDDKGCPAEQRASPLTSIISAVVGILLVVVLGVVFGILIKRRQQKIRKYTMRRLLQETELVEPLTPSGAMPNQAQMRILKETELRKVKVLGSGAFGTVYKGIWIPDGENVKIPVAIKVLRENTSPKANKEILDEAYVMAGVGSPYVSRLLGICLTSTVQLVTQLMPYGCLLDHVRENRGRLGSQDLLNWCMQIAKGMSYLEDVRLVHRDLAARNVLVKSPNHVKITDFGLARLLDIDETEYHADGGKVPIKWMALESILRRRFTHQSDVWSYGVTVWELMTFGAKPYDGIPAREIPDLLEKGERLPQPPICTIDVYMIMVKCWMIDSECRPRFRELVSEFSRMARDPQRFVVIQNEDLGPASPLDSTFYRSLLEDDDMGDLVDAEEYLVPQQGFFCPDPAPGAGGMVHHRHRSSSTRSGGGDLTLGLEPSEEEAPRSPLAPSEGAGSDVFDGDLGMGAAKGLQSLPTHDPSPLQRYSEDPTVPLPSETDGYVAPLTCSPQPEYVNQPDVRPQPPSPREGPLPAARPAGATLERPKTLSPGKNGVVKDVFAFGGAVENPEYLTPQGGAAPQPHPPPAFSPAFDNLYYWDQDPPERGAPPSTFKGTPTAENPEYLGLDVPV

{"Compound": "CC(=O)Nc1cccc(NC(=O)c2oc3ccccc3c2C)c1", "Her2 level (%)": 92.5}
{"Compound": "COCCNC(=O)CN(C)S(=O)(=O)c1ccc2c(c1)OCCO2", "Her2 level (%)": 102}
{"Compound": "CCOC(=O)C1CCN(C(=O)COc2ccc(Cl)cc2Cl)CC1", "Her2 level (%)": 98}
{"Compound": "Cc1cc(O)c(C(C)C)cc1N=C1CSC(=O)N1", "Her2 level (%)": 78.5}
{"Compound": "CCNC(=O)CC1C(=O)N(c2ccc(F)cc2)C(=O)N1CCC(C)C (stereo not drawn)", "Her2 level (%)": 80.5}
{"Compound": "CC(C)OC(=O)CSc1nnc(-c2ccc(C(C)(C)C)cc2)n1N", "Her2 level (%)": 108}
{"Compound": "COc1ccc(-c2nnc3sc(-c4c(OC)cccc4OC)nn23)cc1", "Her2 level (%)": 93.5}
{"Compound": "Cc1cc(C)cc(NC(=O)C2CCCN(c3nccc(C)n3)C2)c1 (stereo not drawn)", "Her2 level (%)": 101}
{"Compound": "CCN(CCNC(=O)CS(=O)(=O)Cc1nc(-c2cccc(OC)c2)oc1C)c1ccccc1", "Her2 level (%)": 105}
{"Compound": "CCNS(=O)(=O)c1ccc(S(=O)(=O)N(Cc2ccccn2)C2CCCCC2)cc1", "Her2 level (%)": 87}
{"Compound": "CNC(=O)CN(c1cc(C)ccc1OC)S(=O)(=O)c1ccc(C)cc1", "Her2 level (%)": 113}
{"Compound": "COC(=O)Cn1cnc2c(nnn2-c2ccc(C)cc2)c1=O", "Her2 level (%)": 108}
{"Compound": "CC(C)Cn1c(N)c(C(=O)COC(=O)c2cc(-c3ccco3)nc3ccccc23)c(=O)n(C)c1=O", "Her2 level (%)": 80}
{"Compound": "CCOC(=O)C1C(=O)N(C(=O)c2ccc(OC)cc2)CC1c1ccccc1 (stereo not drawn)", "Her2 level (%)": 94.5}
{"Compound": "COc1ccccc1N1CC(O)=C(c2nc3ccccc3c(=O)[nH]2)C1=N", "Her2 level (%)": 72}
{"Compound": "CCOc1ccc(NC(=O)c2ccccc2O)cc1", "Her2 level (%)": 87.5}
{"Compound": "Cc1ccc(Br)cc1S(=O)(=O)N1CCN(c2ccccc2)CC1", "Her2 level (%)": 116}
{"Compound": "Cc1ccc(C(c2nnnn2CCC(C)C)N2CCN(C)CC2)cc1 (stereo not drawn)", "Her2 level (%)": 84}
{"Compound": "O=S(=O)(NCc1ccccc1)c1ccc2c(c1)OCCO2", "Her2 level (%)": 110}
{"Compound": "COc1ccc2[nH]c(=O)c(CNC3CCCCC3)cc2c1", "Her2 level (%)": 93}
{"Compound": "CCOc1cc(C2C(C(=O)c3ccccc3)=C(C(=O)OC)Nc3nnnn32)ccc1O (stereo not drawn)", "Her2 level (%)": 96}
{"Compound": "COCCn1c(CN2CCN(c3cccc(Cl)c3)CC2)nc2c1c(=O)n(C)c(=O)n2C", "Her2 level (%)": 85}
{"Compound": "c1ccc(Cn2nnc3c(N4CCC5(CC4)OCCO5)ncnc32)cc1", "Her2 level (%)": 92.5}
